Each recorded value in this set is attributed to patent US11564923B2.

# Target System: Recombinant human TYK2 catalytic domain (amino acids 871-1187) (Homo sapiens, UniProt P29597)
# Construct: catalytic domain (amino acids 871-1187)
# Assay Summary: TYK2 ADPglo kinase assay; further: 12 µM ATP
# Assay type: biochemical
Metric: IC50 (nM)
The response must be a number in nM with no trailing unit.

Qu. Suppose we examine the compound Cc1cc(C#N)ncc1Oc1cc(Nc2ccc(C(=O)N3CCN(C4CC4)CC3)cn2)c2ncn(C)c2n1 [Compound 48] ; what IC50 value has been reported?
Ans. 0.48

Qu. Suppose we examine the compound Cc1cc(C#N)ncc1N(c1cc(Nc2cc(N)ncn2)c2ncn(C)c2n1)C1CC1 [Compound 88] ; what IC50 value has been reported?
Ans. 0.11

Qu. Suppose we examine the compound Cc1cc(C#N)ncc1Oc1cc(Nc2ccc(N3CCOC(C(C)C)C3)nn2)c2ncn(C)c2n1 (stereo in doubt) [Compound 177] ; what IC50 value has been reported?
Ans. 1.2

Qu. Suppose we examine the compound Cc1cc(C#N)ncc1Oc1cc(Nc2ccc(N3C[C@@H](C)O[C@H](C)C3)nn2)c2ncn(C)c2n1 (racemic) [Compound 176] ; what IC50 value has been reported?
Ans. 0.93

Qu. Suppose we examine the compound Cc1cc(C#N)ncc1Oc1cc(Nc2ccc(N3C[C@H](C)O[C@@H](C)C3)nn2)c2ncn(C)c2n1 [Compound 166] ; what IC50 value has been reported?
Ans. 2.28

Qu. Suppose we examine the compound Cc1cc(C#N)ncc1Oc1cc(Nc2ccc(N3CCO[C@H](C)C3)nn2)c2ncn(C)c2n1 [Compound 172] ; what IC50 value has been reported?
Ans. 0.92

Qu. Suppose we examine the compound Cc1cc(C#N)ncc1Oc1cc(Nc2ccc(N3CCOC(C(C)C)C3)nn2)c2ncn(C)c2n1 (stereo in doubt) [Compound 173] ; what IC50 value has been reported?
Ans. 1.3

Qu. Suppose we examine the compound Cc1cc(C#N)ncc1Oc1cc(Nc2ccc(N3CC4CCC(C3)O4)nn2)c2ncn(C)c2n1 [Compound 170] ; what IC50 value has been reported?
Ans. 1.46

Qu. Suppose we examine the compound Cc1cc(C#N)ncc1Oc1cc(Nc2ccc(N3CCO[C@@H](CO)C3)nn2)c2ncn(C)c2n1 [Compound 163] ; what IC50 value has been reported?
Ans. 1.06

Qu. Suppose we examine the compound Cc1cc(C#N)ncc1Oc1cc(Nc2ccc(N3C[C@@H]4C[C@H]3CO4)nn2)c2ncn(C)c2n1 [Compound 174] ; what IC50 value has been reported?
Ans. 1.03

====

# Target System: Recombinant human JAK3 catalytic domain (amino acids 781-1124) (Homo sapiens)
# Sequence (P52333 781-1124): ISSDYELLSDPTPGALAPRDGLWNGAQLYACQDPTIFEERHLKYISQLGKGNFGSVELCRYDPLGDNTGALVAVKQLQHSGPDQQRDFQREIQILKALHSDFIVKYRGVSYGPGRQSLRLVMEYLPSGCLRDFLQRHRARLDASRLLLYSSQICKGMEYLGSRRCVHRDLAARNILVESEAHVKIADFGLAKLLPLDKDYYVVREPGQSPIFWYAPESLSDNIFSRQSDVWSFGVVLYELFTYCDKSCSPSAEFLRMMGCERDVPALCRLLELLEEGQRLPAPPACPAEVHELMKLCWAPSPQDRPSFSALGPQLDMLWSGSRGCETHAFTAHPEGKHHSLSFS
# Assay Summary: JAK3 inhibition assay
Metric: IC50 (nM)
The response must be a number in nM with no trailing unit.

Qu. Suppose we examine the compound Cc1cc(C#N)ncc1Oc1cc(Nc2ccc(C(N(C)C)C(F)(F)F)cn2)c2ncn(C)c2n1 (stereo not shown) [Compound 79] ; what IC50 value has been reported?
Ans. 573

Qu. Suppose we examine the compound Cn1cnc2c(Nc3cc(N)ncn3)cc(NC(C3CC3)C3CC3)nc21 [Compound 95] ; what IC50 value has been reported?
Ans. 177

Qu. Suppose we examine the compound CCNC(=O)c1ccc(Nc2cc(Oc3cnc(C#N)cc3C)nc3c2ncn3C)nc1C [Compound 78] ; what IC50 value has been reported?
Ans. 737

Qu. Suppose we examine the compound CC(C)[C@@H](Nc1cc(Nc2ccc(C(=O)N(C)C)cn2)c2ncn(C)c2n1)C(F)(F)F [Compound 97] ; what IC50 value has been reported?
Ans. 36.4

====

What log10(IC50) was measured for each of the following?
# Target System: Recombinant human JAK2 (catalytic domain, amino acids 808-1132) (Homo sapiens, UniProt O60674)
# Construct: catalytic domain, amino acids 808-1132
# Sequence (O60674 808-1132): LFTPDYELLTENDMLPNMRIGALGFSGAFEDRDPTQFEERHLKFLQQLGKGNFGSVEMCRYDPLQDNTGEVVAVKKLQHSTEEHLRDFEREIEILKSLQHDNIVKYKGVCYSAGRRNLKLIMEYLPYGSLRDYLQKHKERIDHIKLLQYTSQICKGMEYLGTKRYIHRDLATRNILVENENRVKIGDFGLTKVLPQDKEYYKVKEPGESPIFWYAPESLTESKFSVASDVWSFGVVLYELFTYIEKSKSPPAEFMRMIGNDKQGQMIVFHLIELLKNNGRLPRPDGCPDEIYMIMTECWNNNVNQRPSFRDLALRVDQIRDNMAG
# Assay Summary: JAK2 inhibition assay; further: 0.7 µM ATP
# Condition Description: read-out: JAK2 potency IC50
Please keep in mind that the values are log10 of IC50 expressed in nM.

Qu. Suppose we examine the compound Cc1cc(C#N)ncc1Oc1cc(Nc2ccc(N3CCC(N(C)C)C3)cn2)c2ncn(C)c2n1 (stereo not drawn) ; what log10(IC50) value has been reported?
Ans. 1.88

Qu. Suppose we examine the compound `CC(C)[C@@H](Nc1cc(Nc2cc(N)ncn2)c2ncn(C)c2n1)C(F)(F)F` ; what log10(IC50) value has been reported?
Ans. 0.80

Qu. Suppose we examine the compound `Cc1cc(C#N)ncc1Oc1cc(Nc2cnn(CCN3CCOCC3)c2)c2ncn(C)c2n1` ; what log10(IC50) value has been reported?
Ans. 1.35

Qu. Suppose we examine the compound `Cc1cc(C#N)ncc1N(CCCO)c1cc(Nc2cc(N)ncn2)c2ncn(C)c2n1` ; what log10(IC50) value has been reported?
Ans. 0.84

Qu. Suppose we examine the compound `Cc1cc(C#N)ncc1Oc1cc(Nc2ccc(C(=O)NCCN(C)C)cn2)c2ncn(C)c2n1` ; what log10(IC50) value has been reported?
Ans. 1.71

Qu. Suppose we examine the compound Cc1cc(C#N)ncc1Oc1cc(Nc2cc(NCC3COCCO3)ncn2)c2ncn(C)c2n1 (stereo not drawn) ; what log10(IC50) value has been reported?
Ans. 1.31

====

What log10(IC50) was measured for each of the following?
# Target System: Recombinant human TYK2 catalytic domain (amino acids 871-1187) (Homo sapiens, UniProt P29597)
# Construct: catalytic domain (amino acids 871-1187)
# Sequence (P29597 871-1187): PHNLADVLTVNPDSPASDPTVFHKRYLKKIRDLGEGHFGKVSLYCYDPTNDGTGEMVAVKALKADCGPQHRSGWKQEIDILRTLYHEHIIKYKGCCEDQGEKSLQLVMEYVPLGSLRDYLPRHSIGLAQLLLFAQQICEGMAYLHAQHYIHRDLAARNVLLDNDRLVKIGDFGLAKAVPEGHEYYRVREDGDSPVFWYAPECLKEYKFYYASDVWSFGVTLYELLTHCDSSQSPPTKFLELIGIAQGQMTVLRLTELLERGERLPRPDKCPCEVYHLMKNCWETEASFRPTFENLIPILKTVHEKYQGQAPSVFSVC
# Assay Summary: TYK2 radioactive assay polyGT substrate; further: 0.1 µM ATP
# Format: biochemical
# Method: After 120 min at 30° C., reactions were stopped by adding 25 μL/well of 150 mM phosphoric acid. […] Plates were washed 6 times with 300 μL per well of a 75 mM phosphoric acid solution and the bottom of the plates is sealed. […] Kinase activity is calculated by subtracting counts per min (cpm) obtained in the presence of a positive control inhibitor (10 μM staurosporine) from cpm obtained in the presence of vehicle. […]
Where a name gives a salt, the structure may show the parent alone.
Please keep in mind that the values are log10 of IC50 expressed in nM.

Qu. Suppose we examine the molecule `Cc1cc(C#N)ncc1Oc1cc(Nc2ccc(C(=O)N3CCOC[C@H]3C)cn2)c2ncn(C)c2n1` ; what log10(IC50) value has been reported?
Ans. 0.06

Qu. Suppose we examine the molecule `COCCCS(=O)(=O)c1ccc(Nc2cc(Oc3cnc(C#N)cc3C)nc3c2ncn3C)cc1` ; what log10(IC50) value has been reported?
Ans. 1.13

Qu. Suppose we examine the molecule `Cc1cc(C#N)ncc1Oc1cc(Nc2ccc(N3CC(N(C)C)C3)nn2)c2ncn(C)c2n1` ; what log10(IC50) value has been reported?
Ans. 0.66

Qu. Suppose we examine the molecule `Cc1cc(C#N)ncc1Oc1cc(Nc2ccc(C(=O)N3CCC(N(C)C)CC3)cn2)c2ncn(C)c2n1` ; what log10(IC50) value has been reported?
Ans. 0.74

Qu. Suppose we examine the molecule `Cc1cc(C#N)ncc1N(c1cc(Nc2cc(N)ncn2)c2ncn(C)c2n1)C1CC1` ; what log10(IC50) value has been reported?
Ans. -0.28

Qu. Suppose we examine the molecule `Cc1cc(C#N)ncc1Oc1cc(Nc2ccc(C(=O)N3CC(CO)C3)cn2)c2ncn(C)c2n1` ; what log10(IC50) value has been reported?
Ans. 0.45

Qu. Suppose we examine the molecule `COC1(C)CN(C(=O)c2ccc(Nc3cc(Oc4cnc(C#N)cc4C)nc4c3ncn4C)nc2)C1` ; what log10(IC50) value has been reported?
Ans. 0.28

Qu. Suppose we examine the molecule `Cc1cc(C#N)ncc1Oc1cc(Nc2ccc(OC3CCN(C)CC3)cn2)c2ncn(C)c2n1` ; what log10(IC50) value has been reported?
Ans. 0.96

Qu. Suppose we examine the molecule `Cc1cc(C#N)ncc1Oc1cc(Nc2ccc(C(=O)N3CC(O)(C4CC4)C3)cn2)c2ncn(C)c2n1` ; what log10(IC50) value has been reported?
Ans. 0.31

Qu. Suppose we examine the molecule `C[C@H]1COCC[C@@H]1N(C)c1cc(Nc2cc(N)ncn2)c2ncn(C)c2n1` ; what log10(IC50) value has been reported?
Ans. 1.01

Qu. Suppose we examine the molecule `Cc1cc(C#N)ncc1Oc1cc(Nc2ccc(N3CCOC[C@@H]3C)cn2)c2ncn(C)c2n1` ; what log10(IC50) value has been reported?
Ans. 0.68

Qu. Suppose we examine the molecule `Cc1cc(C#N)ncc1Oc1cc(Nc2ccc(C(=O)N3CCNCC3)cn2)c2ncn(C)c2n1` ; what log10(IC50) value has been reported?
Ans. 0.53

Qu. Suppose we examine the molecule `Cc1cc(C#N)ncc1Oc1cc(Nc2ccc(S(=O)(=O)N3CCOCC3)cc2)c2ncn(C)c2n1` ; what log10(IC50) value has been reported?
Ans. 0.88

Qu. Suppose we examine the molecule `Cc1cc(C#N)ncc1Oc1cc(Nc2ccc(C(=O)N3CC(CO)(CO)C3)cn2)c2ncn(C)c2n1` ; what log10(IC50) value has been reported?
Ans. 0.32

Qu. Suppose we examine the molecule `COc1ccc(Nc2cc(Oc3cnc(C#N)cc3C)nc3c2ncn3C)nc1` ; what log10(IC50) value has been reported?
Ans. 1.04

Qu. Suppose we examine the molecule CCNC(c1ccc(Nc2cc(Oc3cnc(C#N)cc3C)nc3c2ncn3C)nc1)C(F)(F)F (centres unmarked) ; what log10(IC50) value has been reported?
Ans. 0.35

Qu. Suppose we examine the molecule `Cc1cc(C#N)ncc1Oc1cc(Nc2ccc(C(=O)N3CC(C(C)(C)O)C3)cn2)c2ncn(C)c2n1` ; what log10(IC50) value has been reported?
Ans. 0.30

Qu. Suppose we examine the molecule `CN(c1cc(Nc2cc(N)ncn2)c2ncn(C)c2n1)c1c(F)cc(C#N)cc1C1CC1` ; what log10(IC50) value has been reported?
Ans. 0.58

Qu. Suppose we examine the molecule Cc1cc(C#N)ncc1Oc1cc(Nc2ccc(C(=O)N3CCOC(C4CC4)C3)cn2)c2ncn(C)c2n1 (centres unmarked) ; what log10(IC50) value has been reported?
Ans. 0.24

Qu. Suppose we examine the molecule Cc1cc(C#N)ncc1Oc1cc(Nc2ccc(CN3CCOCC3)cn2)c2ncn(C)c2n1 [Compound 82, formate salt] ; what log10(IC50) value has been reported?
Ans. 0.91
